Target: T1, squid p32 (AUF1 homolog) (Aedes albopictus (cDNA from C6/36 cells), UniProt A0A023EP16 2-301)
T1 sequence: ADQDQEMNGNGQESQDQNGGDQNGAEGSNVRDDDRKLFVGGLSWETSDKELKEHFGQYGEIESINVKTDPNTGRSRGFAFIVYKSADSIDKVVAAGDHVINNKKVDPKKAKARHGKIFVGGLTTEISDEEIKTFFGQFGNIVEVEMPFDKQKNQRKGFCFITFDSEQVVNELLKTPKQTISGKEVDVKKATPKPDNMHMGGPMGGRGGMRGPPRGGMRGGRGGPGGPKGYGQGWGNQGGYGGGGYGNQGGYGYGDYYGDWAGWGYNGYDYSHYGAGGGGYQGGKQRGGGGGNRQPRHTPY
Experiment: fluorescence intensity titration
Conditions: protein: recombinant; tags: none after cleavage (SUMO fusion removed by SUMO protease)
endpoint name: pKd
Lab note: report pKd as minus log10 of the concentration in molar units, number only.

UAUUUAGUGGUGUUAG (ssRNA) [AU/GU-rich RNA]
6.89

# ---- query binder ----
**Query** Can you share its pKd? I mean this binder: CUAAGAUGCUCGCUGC (ssRNA) [random RNA]
**Result** 6.20

From: paper PMC7019923
